Each recorded value in this set is attributed to patent US10508107B2.

target: human TAAR1 (Homo sapiens (Human)); experiment: cAMP functional assay in HEK293 cells expressing human TAAR1; assay type: cell-based; details: cAMP, HEK293 cells expressing human TAAR1; listed as example 14; read-out: hTAAR1 EC50
Sequence (Q96RJ0 whole entry): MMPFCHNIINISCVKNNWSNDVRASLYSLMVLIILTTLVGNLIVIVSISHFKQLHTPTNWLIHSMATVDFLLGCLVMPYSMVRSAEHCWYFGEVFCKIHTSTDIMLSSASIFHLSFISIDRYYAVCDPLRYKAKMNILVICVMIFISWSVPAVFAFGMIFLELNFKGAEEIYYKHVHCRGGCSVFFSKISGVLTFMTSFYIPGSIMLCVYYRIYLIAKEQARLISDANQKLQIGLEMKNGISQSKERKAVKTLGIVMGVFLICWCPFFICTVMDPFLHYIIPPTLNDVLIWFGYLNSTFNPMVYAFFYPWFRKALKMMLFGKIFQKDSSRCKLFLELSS

line notation: Cc1cc(C(=O)Nc2ccc([C@H]3CNCCO3)cc2)cc(Cl)n1
test target: human TAAR1 (Homo sapiens (Human))
EC50: 447 nM

###

biological target: hERG potassium channel (Homo sapiens (Human), UniProt Q12809); assay: hERG whole-cell patch-clamp in stably transfected CHO cells; assay type: cell-based
Sequence (Q12809 whole entry): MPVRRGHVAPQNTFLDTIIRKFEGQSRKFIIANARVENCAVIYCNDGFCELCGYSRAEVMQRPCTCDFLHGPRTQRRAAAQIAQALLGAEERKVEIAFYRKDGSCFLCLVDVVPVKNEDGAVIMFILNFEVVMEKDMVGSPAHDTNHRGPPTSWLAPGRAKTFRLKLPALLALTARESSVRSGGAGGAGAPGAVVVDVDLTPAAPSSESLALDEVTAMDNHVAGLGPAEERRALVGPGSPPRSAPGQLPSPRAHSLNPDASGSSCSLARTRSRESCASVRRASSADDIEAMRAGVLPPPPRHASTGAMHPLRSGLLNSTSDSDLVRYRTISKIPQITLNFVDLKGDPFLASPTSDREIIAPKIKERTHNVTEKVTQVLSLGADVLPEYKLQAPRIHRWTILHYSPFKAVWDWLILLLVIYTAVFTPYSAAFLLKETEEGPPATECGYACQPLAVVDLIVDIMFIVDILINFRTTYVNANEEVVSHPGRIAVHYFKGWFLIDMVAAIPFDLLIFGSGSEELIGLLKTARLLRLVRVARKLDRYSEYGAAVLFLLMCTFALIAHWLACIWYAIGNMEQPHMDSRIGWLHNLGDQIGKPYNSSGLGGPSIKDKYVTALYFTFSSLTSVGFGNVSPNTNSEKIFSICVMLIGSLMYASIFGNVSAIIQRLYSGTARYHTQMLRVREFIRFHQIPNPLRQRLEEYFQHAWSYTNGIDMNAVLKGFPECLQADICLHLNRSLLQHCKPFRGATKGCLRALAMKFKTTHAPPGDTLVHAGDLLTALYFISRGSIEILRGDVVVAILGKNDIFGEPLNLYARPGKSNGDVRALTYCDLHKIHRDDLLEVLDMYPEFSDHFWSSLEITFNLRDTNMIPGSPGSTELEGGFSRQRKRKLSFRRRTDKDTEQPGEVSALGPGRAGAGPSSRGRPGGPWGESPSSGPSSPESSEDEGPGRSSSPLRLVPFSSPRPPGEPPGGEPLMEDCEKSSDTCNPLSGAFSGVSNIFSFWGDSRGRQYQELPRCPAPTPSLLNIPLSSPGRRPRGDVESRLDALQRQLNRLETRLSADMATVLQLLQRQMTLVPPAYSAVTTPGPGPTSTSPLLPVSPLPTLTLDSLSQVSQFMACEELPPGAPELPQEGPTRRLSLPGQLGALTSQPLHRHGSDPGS

line notation: N#Cc1ccc(C(=O)Nc2ccc([C@H]3CNCCO3)cc2)cn1
test target: hERG potassium channel (Homo sapiens (Human), UniProt Q12809)
Ratio hERG IC20/hTAAR1 EC50: 31
//
line notation: O=C(Nc1ccc([C@H]2CNCCO2)cc1)c1ccc(Cl)cn1
test target: hERG potassium channel (Homo sapiens (Human), UniProt Q12809)
Ratio hERG IC20/hTAAR1 EC50: 15
//
line notation: O=C(Nc1ccc([C@H]2CNCCO2)cc1)c1csc(-c2ccccc2)n1
test target: hERG potassium channel (Homo sapiens (Human), UniProt Q12809)
Ratio hERG IC20/hTAAR1 EC50: 5
//
line notation: Cc1cc(C(=O)Nc2ccc([C@H]3CNCCO3)cc2)ccn1
test target: hERG potassium channel (Homo sapiens (Human), UniProt Q12809)
Ratio hERG IC20/hTAAR1 EC50: 193
//
line notation: O=C(Nc1ccc([C@H]2CNCCO2)cc1)c1coc(-c2ccccc2)n1
test target: hERG potassium channel (Homo sapiens (Human), UniProt Q12809)
Ratio hERG IC20/hTAAR1 EC50: 4
//
line notation: Cc1cc(C(=O)Nc2ccc([C@H]3CNCCO3)cc2)cc(C)n1
test target: hERG potassium channel (Homo sapiens (Human), UniProt Q12809)
Ratio hERG IC20/hTAAR1 EC50: 177
//
line notation: O=C(Nc1ccc([C@H]2CNCCO2)cc1)c1ccc(Cl)nc1
test target: hERG potassium channel (Homo sapiens (Human), UniProt Q12809)
Ratio hERG IC20/hTAAR1 EC50: 201
//
line notation: O=C(Nc1ccc([C@H]2CNCCO2)cc1)c1ccc(OCC(F)(F)F)nc1
test target: hERG potassium channel (Homo sapiens (Human), UniProt Q12809)
Ratio hERG IC20/hTAAR1 EC50: 52
//
line notation: Cc1c(C(=O)Nc2ccc([C@H]3CNCCO3)cc2)n[nH]c1-c1ccccc1
test target: hERG potassium channel (Homo sapiens (Human), UniProt Q12809)
Ratio hERG IC20/hTAAR1 EC50: 28

###

molecular target: UniProt:Q01959; assay: Binding to dopamine transporter (DAT) in vitro, [3H]-WIN35,428 SPA; conditions: [3H]-WIN35,428 radioligand
Sequence (Q01959 whole entry): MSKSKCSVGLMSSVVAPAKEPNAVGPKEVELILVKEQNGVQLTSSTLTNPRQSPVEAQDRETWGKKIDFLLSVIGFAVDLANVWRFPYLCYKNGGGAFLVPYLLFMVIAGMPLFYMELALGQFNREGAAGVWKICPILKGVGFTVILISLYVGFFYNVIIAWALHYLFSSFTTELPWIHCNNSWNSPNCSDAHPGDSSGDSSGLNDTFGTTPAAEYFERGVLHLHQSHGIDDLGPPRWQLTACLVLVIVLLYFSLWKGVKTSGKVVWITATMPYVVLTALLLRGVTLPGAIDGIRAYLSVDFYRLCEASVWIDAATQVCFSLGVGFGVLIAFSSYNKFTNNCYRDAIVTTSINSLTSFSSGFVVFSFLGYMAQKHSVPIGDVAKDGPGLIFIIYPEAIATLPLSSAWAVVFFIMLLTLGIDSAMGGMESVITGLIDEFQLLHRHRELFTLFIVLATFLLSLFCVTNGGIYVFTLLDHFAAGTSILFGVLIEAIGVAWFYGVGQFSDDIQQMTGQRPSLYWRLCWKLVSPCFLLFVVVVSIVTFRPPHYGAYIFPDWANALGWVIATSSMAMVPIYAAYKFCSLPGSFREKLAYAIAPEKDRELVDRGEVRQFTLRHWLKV
pKi: −log10 of the molar value.

line notation: O=C(Nc1ccc([C@H]2CNCCO2)cc1)c1coc(-c2ccccc2)n1
pKi: < 4.58
--
line notation: O=C(Nc1ccc([C@H]2CNCCO2)cc1)c1ccn(-c2ccccc2)n1
pKi: < 4.58
--
line notation: Cc1cc(C(=O)Nc2ccc([C@H]3CNCCO3)cc2)cc(C)n1
pKi: < 4.58
